# studyTarget: Human PARG (Homo sapiens, UniProt Q86W56)
# Construct: The human PARG (hPARG) catalytic domain (residues 389–976) was cloned in pET28a (Novagen); His-tag (N); made in house; host or cells: E. coli Rosetta
# Sequence (Q86W56 389-976): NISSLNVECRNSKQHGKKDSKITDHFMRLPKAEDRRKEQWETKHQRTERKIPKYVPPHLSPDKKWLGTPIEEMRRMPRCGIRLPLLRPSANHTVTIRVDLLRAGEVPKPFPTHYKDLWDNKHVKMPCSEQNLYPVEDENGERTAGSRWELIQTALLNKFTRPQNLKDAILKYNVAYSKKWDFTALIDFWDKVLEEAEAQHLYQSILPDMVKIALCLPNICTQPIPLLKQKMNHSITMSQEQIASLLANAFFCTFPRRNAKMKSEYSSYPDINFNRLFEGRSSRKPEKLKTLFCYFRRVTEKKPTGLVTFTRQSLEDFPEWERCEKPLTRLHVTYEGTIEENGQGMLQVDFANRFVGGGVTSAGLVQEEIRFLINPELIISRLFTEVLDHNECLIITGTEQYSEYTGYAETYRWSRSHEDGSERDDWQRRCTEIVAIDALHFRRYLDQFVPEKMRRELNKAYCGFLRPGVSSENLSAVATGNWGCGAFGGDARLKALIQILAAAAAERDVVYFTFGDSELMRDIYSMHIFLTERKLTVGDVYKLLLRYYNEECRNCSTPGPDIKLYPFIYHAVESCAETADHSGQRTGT
# experimentalProtocol: Gel-based PARG activity assay
# Assay type: biochemical
# measurementContext: [L] 1.5625 uM
reportedProperty: inhibition at 1.5625 µM (%)
I only need the number, in %, no unit after it.

Examples from the recorded data:
Cn1c(=O)c2[nH]c(SCCN3CCOCC3)nc2n(C)c1=S : 71
Cn1c(=S)c2[nH]c(SCCN3CCOCC3)nc2n(C)c1=O : 75.5
Cn1c(=S)c2nc(SCCN3CCCC3)[nH]c2n(C)c1=O : 67

// switching to the query molecule
The molecule listed as Cn1c(=O)c2[nH]c(SCCN3CCOCC3)nc2n(C)c1=O shows inhibition at 1.5625 µM equal to 24.6

====

# studyTarget: Human PARG (Homo sapiens)
# Construct: The human PARG (hPARG) catalytic domain (residues 389–976) was cloned in pET28a (Novagen); His-tag (N); made in house; host or cells: E. coli Rosetta
# experimentalProtocol: Gel-based PARG activity assay
# Assay type: biochemical
# measurementContext: [L] 25 uM
// reported inhibition at 25 µM for each item listed
I only need the number, in %, no unit after it.

Examples from the recorded data:
Cn1c(=S)c2nc(SCCN3CCCC3)[nH]c2n(C)c1=O [JA2-4] : 93.6
Cn1c(=S)c2[nH]c(SCCN3CCOCC3)nc2n(C)c1=O [JA2131] : 104
Cn1c(=O)c2[nH]c(SCCN3CCOCC3)nc2n(C)c1=O [JA2120] : 45.5

// switching to the query molecule
The molecule listed as Cn1c(=O)c2[nH]c(SCCN3CCOCC3)nc2n(C)c1=S [JA2-5] shows inhibition at 25 µM equal to 99.8

====

# studyTarget: Human PARG (Homo sapiens, UniProt Q86W56)
# Construct: The human PARG (hPARG) catalytic domain (residues 389–976) was cloned in pET28a (Novagen); His-tag (N); made in house; host or cells: E. coli Rosetta
# experimentalProtocol: Gel-based PARG activity assay
# Format: biochemical
# measurementContext: [L] 0.0488281 uM
// reported inhibition at 0.0488281 µM for each item listed
I only need the number, in %, no unit after it.

The molecule listed as Cn1c(=S)c2[nH]c(SCCN3CCOCC3)nc2n(C)c1=O shows inhibition at 0.0488281 µM equal to 13.8

The molecule listed as Cn1c(=O)c2[nH]c(SCCN3CCOCC3)nc2n(C)c1=O shows inhibition at 0.0488281 µM equal to 6.05

The molecule listed as Cn1c(=O)c2[nH]c(SCCN3CCOCC3)nc2n(C)c1=S shows inhibition at 0.0488281 µM equal to 6.3

The molecule listed as Cn1c(=S)c2nc(SCCN3CCCC3)[nH]c2n(C)c1=O shows inhibition at 0.0488281 µM equal to 2.01

====

# experimentalProtocol: Sulforhodamine B (SRB) cytotoxicity assay
# measurementContext: human, PC3 cells, Viability, -IR, log [concentration] μM 0.591732
reportedProperty: viability at 72 h, 3.91 µM (%)
I only need the number, in %, no unit after it.

The compound listed as O=C(c1cc(Cc2n[nH]c(=O)c3ccccc23)ccc1F)N1CCN(C(=O)C2CC2)CC1 [Olaparib, reference compound] shows viability at 72 h, 3.91 µM equal to 102

====

# experimentalProtocol: Sulforhodamine B (SRB) cytotoxicity assay
# measurementContext: human, PC3 cells, Viability, +IR 7.0 Gy, log [concentration] μM 1.49485
reportedProperty: viability at 72 h, 31.25 µM (%)
I only need the number, in %, no unit after it.

The compound listed as O=C(c1cc(Cc2n[nH]c(=O)c3ccccc23)ccc1F)N1CCN(C(=O)C2CC2)CC1 [Olaparib, reference compound] shows viability at 72 h, 31.25 µM equal to 79.9

====

// reported inhibition at 0.78125 µM for each item listed
# studyTarget: Human PARG (Homo sapiens, UniProt Q86W56)
# Construct: The human PARG (hPARG) catalytic domain (residues 389–976) was cloned in pET28a (Novagen); His-tag (N); made in house; host or cells: E. coli Rosetta
# experimentalProtocol: Gel-based PARG activity assay
# Format: biochemical
# measurementContext: [L] 0.78125 uM
I only need the number, in %, no unit after it.

Examples from the recorded data:
Cn1c(=S)c2nc(SCCN3CCCC3)[nH]c2n(C)c1=O : 48.4
Cn1c(=O)c2[nH]c(SCCN3CCOCC3)nc2n(C)c1=S : 35.2
Cn1c(=O)c2[nH]c(SCCN3CCOCC3)nc2n(C)c1=O : 16.2

// switching to the query compound
The compound listed as Cn1c(=S)c2[nH]c(SCCN3CCOCC3)nc2n(C)c1=O shows inhibition at 0.78125 µM equal to 62.5
